- MEASURED_ON: T1, TRCW5 antigen (CD3δε-Fc-Avi) (biotinylated (site not stated))
- T1 construct: also called recombinant CD3
- ASSAY_SUMMARY: ELISA after heat
# % Retained 60° C. values compiled below
Reply with just the number (in %).

Solved cases (4 shown):
BINDER	RECORDED_NUMBER
CD3B2084 (scFv) scFv: QVQLVQSGAEVKKPGSSVKVSCKASGYTFTRSTMHWVRQAPGQGLEWMGYINPSSAYTNYAQKFQGRVTLTADKSTSTAYMELSSLRSEDTAVYYCASPQVHYDYNGFPYWGQGTLVTVSSGGSEGKSSGSGSESKSTGGSEIVLTQSPATLSASPGERVTLSCSASSSVSYMNWYQQKPGQAPRRLIYDSSKLASGVPARFSGSGSGRDYTLTISSLEPEDFAVYYCQQWSRNPPTFGGGTKVEIK	91
CD3B2060 (scFv) scFv: QVQLVQSGAEVKKPGSSVKVSCKASGYTFTRSTMHWVKQAPGQGLEWIGYINPSSAYTNYAQKFQGRVTLTADKSTSTAYMELSSLRSEDTAVYYCASPQVHYDYNGFPYWGQGTLVTVSSGGSEGKSSGSGSESKSTGGSEIVLTQSPATLSASPGERVTLSCSASSSVSYMNWYQQKPGQAPRRLIYDSSKLASGVPARFSGSGSGRDYTLTISSLEPEDFAVYYCQQWSRNPPTFGGGTKVEIK	100
CD3B2046 (scFv) scFv: QVQLVQSGAEVKKPGSSVKVSCKASGYTFTRSTMHWVKQAPGQGLEWIGYINPSSAYTNYNQKFQGRVTLTADKSTSTAYMELSSLRSEDTAVYYCASPQVHYDYNGFPYWGQGTLVTVSSGGSEGKSSGSGSESKSTGGSEIVLTQSPATLSASPGERVTLSCSASSSVSYMNWYQQKPGTSPRRWIYDSSKLASGVPARFSGSGSGRDYTLTISSLEPEDFAVYYCQQWSRNPPTFGGGTKVEIK	113
CD3B2055 (scFv) scFv: QVQLVQSGAEVKKPGSSVKVSCKASGYTFTRSTMHWVRQAPGQGLEWIGYINPSSAYTNYNQKFQGRVTLTADKSTSTAYMELSSLRSEDTAVYYCASPQVHYDYNGFPYWGQGTLVTVSSGGSEGKSSGSGSESKSTGGSEIVLTQSPATLSASPGERVTLSCSASSSVSYMNWYQQKPGTSPRRWIYDSSKLASGVPARFSGSGSGRDYTLTISSLEPEDFAVYYCQQWSRNPPTFGGGTKVEIK	96

--- query ---
# input binder: CD3B2035 (scFv) scFv: QVQLVQSGAEVKKPGSSVKVSCKASGYTFTRSTMHWVKQAPGQGLEWMGYINPSSAYTNYNQKFQGRVTLTADKSTSTAYMELSSLRSEDTAVYYCASPQVHYDYNGFPYWGQGTLVTVSSGGSEGKSSGSGSESKSTGGSEIVLTQSPATLSASPGERVTLSCSASSSVSYMNWYQQKPGQAPRRWIYDSSKLASGVPARFSGSGSGRDYTLTISSLEPEDFAVYYCQQWSRNPPTFGGGTKVEIK ; wanted: its % Retained 60° C.
112

Measured values drawn from patent US20250145711A1 for this set.
